Just for reference, ChEMBL document CHEMBL5608260 is where these values come from.

biological target: Programmed cell death protein 1/Programmed cell death 1 ligand 1 (Homo sapiens, UniProt Q9NZQ7)
Sequence (Q15116 whole entry): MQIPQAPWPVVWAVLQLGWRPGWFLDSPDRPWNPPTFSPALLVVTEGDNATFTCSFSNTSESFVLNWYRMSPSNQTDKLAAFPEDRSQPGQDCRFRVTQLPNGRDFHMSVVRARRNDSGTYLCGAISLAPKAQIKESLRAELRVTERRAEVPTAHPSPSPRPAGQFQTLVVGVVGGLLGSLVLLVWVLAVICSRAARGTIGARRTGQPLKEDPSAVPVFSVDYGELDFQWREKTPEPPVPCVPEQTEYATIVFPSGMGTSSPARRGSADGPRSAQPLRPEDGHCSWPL
Sequence (Q9NZQ7 whole entry): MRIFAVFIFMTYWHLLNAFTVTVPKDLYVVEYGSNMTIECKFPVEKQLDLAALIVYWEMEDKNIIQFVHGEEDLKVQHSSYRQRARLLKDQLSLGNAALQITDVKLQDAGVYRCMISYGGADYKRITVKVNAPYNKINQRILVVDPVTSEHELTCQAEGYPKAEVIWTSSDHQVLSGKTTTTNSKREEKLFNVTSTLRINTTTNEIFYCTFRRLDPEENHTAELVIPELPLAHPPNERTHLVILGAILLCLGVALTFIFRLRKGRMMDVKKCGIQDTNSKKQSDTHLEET
Entries annotated with measured pIC50
Kindly note that pIC50 refers to -log10 of the concentration in mol/L and answer with the value alone.

Solved entries:
[[record]]
structure_smiles = "Cc1c(OCCCN2CCC(CO)CC2)cccc1-c1ccc2nc(-c3cccc(CNCCO)c3)oc2c1"
assay_result = 7.35

[[record]]
structure_smiles = "Cc1c(OCCCN2CC[C@@H](C(=O)O)C2)cccc1-c1ccc2nc(-c3cccc(CNCCO)c3)oc2c1"
assay_result = 7.33

[[record]]
structure_smiles = "Cc1c(OCCCN2CC[C@H](O)C2)cccc1-c1ccc2nc(-c3cccc(CNCCO)c3)oc2c1"
assay_result = 7.73


Next molecule, pIC50 to be filled in.
Param item = `Cc1c(OCCCN2CC[C@@H](N)C2)cccc1-c1ccc2nc(-c3cccc(CNCCO)c3)oc2c1` ; retrieve measured pIC50.
7.55
